# targetOrTestSystem: UniProt Q8TCC7
# assayMethodText: Inhibition of human OAT3 using estrone-3-sulfate as substrate
# Format: ADME
measuredParameter: pIC50
API: returns pIC50 as number; meaning -log10 of concentration in mol/L.

Return pIC50 for the following molecule: N[C@@H](C(=O)N[C@@H]1C(=O)N2C(C(=O)O)=C(Cl)CS[C@H]12)c1ccccc1 [CEFACLOR ANHYDROUS]
3.92

----------
# targetOrTestSystem: OAT3 (Homo sapiens, UniProt Q8TCC7)
# assayMethodText: Inhibition of human OAT3 expressed in CHO cells assessed as inhibition of fluorescein uptake over 20 mins relative to untreated-control
# Assay type: ADME, cell-based
# protocolConditions: CHO cells expressing human OAT3, probe fluorescein
measuredParameter: inhibition at 20 min (%)
I only need the number, in %, no unit after it.

Return inhibition at 20 min for the following compound: CC1(C)S[C@@H]2[C@H](NC(=O)C(C(=O)O)c3ccccc3)C(=O)N2[C@H]1C(=O)O (stereo partly specified)
70

----------
# targetOrTestSystem: Organic anion transporter 3 (Homo sapiens, UniProt Q8TCC7)
# Sequence (Q8TCC7 whole entry): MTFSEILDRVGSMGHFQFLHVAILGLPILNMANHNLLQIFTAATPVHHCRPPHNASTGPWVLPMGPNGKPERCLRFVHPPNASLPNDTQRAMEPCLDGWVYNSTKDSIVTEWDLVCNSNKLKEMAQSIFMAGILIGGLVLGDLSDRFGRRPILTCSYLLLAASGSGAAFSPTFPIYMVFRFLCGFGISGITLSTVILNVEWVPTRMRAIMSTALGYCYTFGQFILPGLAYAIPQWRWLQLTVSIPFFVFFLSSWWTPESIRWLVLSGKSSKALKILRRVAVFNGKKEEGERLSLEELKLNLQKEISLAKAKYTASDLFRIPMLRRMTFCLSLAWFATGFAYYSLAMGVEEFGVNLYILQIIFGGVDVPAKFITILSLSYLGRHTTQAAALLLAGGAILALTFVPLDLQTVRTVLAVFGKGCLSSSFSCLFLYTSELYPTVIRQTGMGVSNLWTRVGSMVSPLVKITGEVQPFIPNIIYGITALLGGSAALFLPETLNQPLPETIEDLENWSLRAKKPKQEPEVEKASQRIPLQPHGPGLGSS
# assayMethodText: Inhibition of human OAT3 expressed in CHO cells assessed as inhibition of fluorescein uptake at 500 uM over 20 mins relative to untreated-control
# Type: ADME, cell-based
# protocolConditions: cho, 20 min, 500 µM
measuredParameter: inhibition (INH)

// worked examples, inhibition (INH) included
Return inhibition (INH) for the following compound: CC1(C)S[C@@H]2[C@H](N)C(=O)N2[C@H]1C(=O)O
Not Active

Return inhibition (INH) for the following compound: CO/N=C(\C(=O)N[C@@H]1C(=O)N2C(C(=O)O)=C(COC(N)=O)CS[C@H]12)c1ccco1 [CEFUROXIME]
Not Active

Return inhibition (INH) for the following compound: CO[C@@]1(NC(=O)Cc2cccs2)C(=O)N2C(C(=O)O)=C(COC(N)=O)CS[C@@H]21 [CEFOXITIN]
Not Active

Return inhibition (INH) for the following compound: CC1=C(C(=O)O)N2C(=O)[C@@H](NC(=O)[C@H](N)c3ccccc3)[C@H]2SC1 [CEPHALEXIN ANHYDROUS]
Not Active

Return inhibition (INH) for the following compound: CC1(C)S[C@@H]2[C@H](NC(=O)[C@H](C(=O)O)c3ccsc3)C(=O)N2[C@H]1C(=O)O [TICARCILLIN]
Not Active

Return inhibition (INH) for the following compound: CC1(C)S[C@@H]2[C@H](NC(=O)[C@H](NC(=O)N3CCNC3=O)c3ccccc3)C(=O)N2[C@H]1C(=O)O [AZLOCILLIN]
Not Active

Continuing:
Return inhibition (INH) for the following compound: CO/N=C(\C(=O)N[C@@H]1C(=O)N2C(C(=O)O)=C(COC(C)=O)CS[C@H]12)c1csc(N)n1 [CEFOTAXIME]
Not Active

Return inhibition (INH) for the following compound: CC1(C)S[C@@H]2[C@H](NC(=O)Cc3ccccc3)C(=O)N2[C@H]1C(=O)O [PENICILLIN G]
Active

----------
# targetOrTestSystem: OAT3 (Homo sapiens)
# assayMethodText: Inhibition of human OAT3 expressed in CHO cells assessed as inhibition of fluorescein uptake at 500 uM over 20 mins relative to untreated-control
# Type: ADME, cell-based
# protocolConditions: CHO cells expressing human OAT3, probe fluorescein
measuredParameter: inhibition at 20 min, 500 µM (%)
I only need the number, in %, no unit after it.

Return inhibition at 20 min, 500 µM for the following compound: CC1=C(C(=O)O)N2C(=O)[C@@H](NC(=O)[C@H](N)c3ccc(O)cc3)[C@H]2SC1 [CEFADROXIL]
20

----------
# targetOrTestSystem: Organic anion transporter 3 (Mus musculus, UniProt O88909)
# Sequence (O88909 whole entry): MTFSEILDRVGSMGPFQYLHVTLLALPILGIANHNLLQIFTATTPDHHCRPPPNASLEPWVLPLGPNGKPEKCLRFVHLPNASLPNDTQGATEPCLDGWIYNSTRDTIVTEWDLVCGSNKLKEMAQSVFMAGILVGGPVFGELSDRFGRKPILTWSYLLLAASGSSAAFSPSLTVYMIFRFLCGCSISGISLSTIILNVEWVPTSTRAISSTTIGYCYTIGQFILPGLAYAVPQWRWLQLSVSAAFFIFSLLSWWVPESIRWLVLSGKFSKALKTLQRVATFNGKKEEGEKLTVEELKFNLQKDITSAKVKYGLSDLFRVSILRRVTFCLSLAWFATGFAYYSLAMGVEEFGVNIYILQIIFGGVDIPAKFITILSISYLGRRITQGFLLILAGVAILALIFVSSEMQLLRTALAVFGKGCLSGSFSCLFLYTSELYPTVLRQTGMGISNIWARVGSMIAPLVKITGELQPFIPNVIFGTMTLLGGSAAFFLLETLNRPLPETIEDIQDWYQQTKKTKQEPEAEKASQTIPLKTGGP
# assayMethodText: Inhibition of mouse OAT3 expressed in CHO cells assessed as inhibition of fluorescein uptake at 500 uM over 20 mins relative to untreated-control
# Format: ADME, cell-based
measuredParameter: inhibition (INH)

Return inhibition (INH) for the following molecule: CC1(C)S[C@@H]2[C@H](N)C(=O)N2[C@H]1C(=O)O
Not Active

Return inhibition (INH) for the following molecule: Cc1onc(-c2ccccc2)c1C(=O)N[C@@H]1C(=O)N2[C@@H]1SC(C)(C)[C@@H]2C(=O)O [OXACILLIN]
Active

Return inhibition (INH) for the following molecule: CC(=O)OCC1=C(C(=O)O)N2C(=O)[C@@H](NC(=O)Cc3cccs3)[C@H]2SC1 [CEPHALOTHIN]
Not Active

Return inhibition (INH) for the following molecule: Cc1onc(-c2c(Cl)cccc2Cl)c1C(=O)N[C@@H]1C(=O)N2[C@@H]1SC(C)(C)[C@@H]2C(=O)O [DICLOXACILLIN]
Active

----------
# targetOrTestSystem: Organic anion transporter 3 (Homo sapiens)
# assayMethodText: Inhibition of human OAT3 expressed in CHO cells assessed as inhibition of fluorescein uptake at 500 uM over 20 mins relative to untreated-control
# Type: ADME, cell-based
# protocolConditions: cho, 20 min, 500 µM
measuredParameter: inhibition (INH)

// worked examples, inhibition (INH) included
Return inhibition (INH) for the following compound: CCN1CCN(C(=O)N[C@@H](C(=O)N[C@@H]2C(=O)N3[C@@H]2SC(C)(C)[C@@H]3C(=O)O)c2ccccc2)C(=O)C1=O
Not Active

Return inhibition (INH) for the following compound: Cc1onc(-c2ccccc2Cl)c1C(=O)N[C@@H]1C(=O)N2[C@@H]1SC(C)(C)[C@@H]2C(=O)O
Not Active

Return inhibition (INH) for the following compound: CCN1CCN(C(=O)N[C@@H](C(=O)N[C@@H]2C(=O)N3C(C(=O)O)=C(CSc4nnnn4C)CS[C@H]23)c2ccc(O)cc2)C(=O)C1=O
Not Active

Return inhibition (INH) for the following compound: CC(=O)OCC1=C(C(=O)O)N2C(=O)[C@@H](NC(=O)Cc3cccs3)[C@H]2SC1
Not Active

Continuing:
Return inhibition (INH) for the following compound: CC1(C)S[C@@H]2[C@H](NC(=O)[C@H](N)c3ccccc3)C(=O)N2[C@H]1C(=O)O
Not Active

Return inhibition (INH) for the following compound: CC1(C)S[C@@H]2[C@H](NC(=O)C(C(=O)O)c3ccccc3)C(=O)N2[C@H]1C(=O)O (stereo partly drawn)
Not Active

Return inhibition (INH) for the following compound: N[C@@H](C(=O)N[C@@H]1C(=O)N2C(C(=O)O)=C(Cl)CS[C@H]12)c1ccccc1 [CEFACLOR ANHYDROUS]
Active

Return inhibition (INH) for the following compound: CC1(C)S[C@@H]2[C@H](NC(=O)COc3ccccc3)C(=O)N2[C@H]1C(=O)O
Not Active

Return inhibition (INH) for the following compound: CO[C@@]1(NC(=O)CSCC#N)C(=O)N2C(C(=O)O)=C(CSc3nnnn3C)CS[C@@H]21
Not Active
